# Test system: HepG2 cells
# Experimental Protocol: CCK8 cell viability / IC50 assay on HepG2 cells
# Details: 10 μM, 72 h
Let's look at some compounds and their measured % Cell Viability (10 μM).
Report as a plain number; the unit % is understood.

Below: 3 compounds and their reported % Cell Viability (10 μM).
COc1cc2ncnc(Nc3cccc(-c4cn(Cc5ccc(Br)cc5)nn4)c3)c2cc1OCCCN1CCOCC1 [Compound 11a] = 7.07
COc1cc2ncnc(Nc3cccc(-c4cn(Cc5ccccc5[N+](=O)[O-])nn4)c3)c2cc1OCCCN1CCOCC1 [Compound 11i] = 70.10
COc1cc(Cn2cc(-c3cccc(Nc4ncnc5cc(OC)c(OCCCN6CCOCC6)cc45)c3)nn2)cc(OC)c1 [Compound 11s] = 22.89

Proceed to the following item.
Ask: % Cell Viability (10 μM) lookup needed for COc1cc2ncnc(Nc3cccc(-c4cn(Cc5cc(F)ccc5C#N)nn4)c3)c2cc1OCCCN1CCOCC1 [Compound 11r] , thanks.
Reply: 9.11

###

IC50 values, listed per item
# Tested on: HepG2 cells
# Experimental Protocol: CCK8 cell viability / IC50 assay on HepG2 cells
# Details: read-out: HepG2, IC50 (μM) 72 h
Report the value in µM with no unit label.

Consider the following illustrative entries.
COc1cc2ncnc(Nc3cccc(-c4cn(Cc5ccc(Cl)cc5)nn4)c3)c2cc1OCCCN1CCOCC1 [Compound 11o] = 5.14
COc1cc2ncnc(Nc3cccc(-c4cn(Cc5ccccc5F)nn4)c3)c2cc1OCCCN1CCOCC1 [Compound 11k] = 6.21
COc1cc2ncnc(Nc3cccc(-c4cn(Cc5ccc(F)c(Cl)c5)nn4)c3)c2cc1OCCCN1CCOCC1 [Compound 11g] = 5.23
COc1cc2ncnc(Nc3cccc(-c4cn(Cc5ccc(Br)cc5F)nn4)c3)c2cc1OCCCN1CCOCC1 [Compound 11f] = 5.15
COc1cc2ncnc(Nc3cccc(-c4cn(Cc5cccc(Cl)c5)nn4)c3)c2cc1OCCCN1CCOCC1 [Compound 11n] = 6.1

Ask: Given the entry COc1cc2ncnc(Nc3cccc(-c4cn(Cc5ccc(C(F)(F)F)cc5)nn4)c3)c2cc1OCCCN1CCOCC1 [Compound 11l] , report its measured IC50.
Reply: 4.53

Ask: Field request: IC50 | item: COc1cc2ncnc(Nc3cccc(-c4cn(Cc5cc(C)cc(C)c5)nn4)c3)c2cc1OCCCN1CCOCC1 [Compound 11q]
Reply: 5.38

Ask: Fill in the blank: the reported IC50 of COc1cc2ncnc(Nc3cccc(-c4cn(Cc5c(F)cccc5Cl)nn4)c3)c2cc1OCCCN1CCOCC1 [Compound 11h] is ____.
Reply: 3.91

###

Let's look at some molecules and their measured melting point.

Here is how some molecules turned out for melting point.
COc1cc2ncnc(Nc3cccc(-c4cn(Cc5c(F)cccc5Cl)nn4)c3)c2cc1OCCCN1CCOCC1 [Compound 11h] = 177 to 180 °C
COc1cc2ncnc(Nc3cccc(-c4cn(Cc5ccc(I)cc5)nn4)c3)c2cc1OCCCN1CCOCC1 [Compound 11m] = 185 to 186 °C
COc1cc2ncnc(Nc3cccc(-c4cn(Cc5ccccc5C#N)nn4)c3)c2cc1OCCCN1CCOCC1 [Compound 11b] = 167 to 168 °C
COc1cc2ncnc(Nc3cccc(-c4cn(Cc5ccccc5F)nn4)c3)c2cc1OCCCN1CCOCC1 [Compound 11k] = 184 to 186 °C
COc1cc2ncnc(Nc3cccc(-c4cn(Cc5ccc(Br)cc5)nn4)c3)c2cc1OCCCN1CCOCC1 [Compound 11a] = 177 to 178 °C
COc1cc2ncnc(Nc3cccc(-c4cn(Cc5ccc(C)cc5)nn4)c3)c2cc1OCCCN1CCOCC1 [Compound 11d] = 168 to 169 °C
COc1cc2ncnc(Nc3cccc(-c4cn(Cc5ccc([N+](=O)[O-])cc5)nn4)c3)c2cc1OCCCN1CCOCC1 [Compound 11j] = 171 to 173 °C
COc1cc2ncnc(Nc3cccc(-c4cn(Cc5cccc(Cl)c5)nn4)c3)c2cc1OCCCN1CCOCC1 [Compound 11n] = 164 to 165 °C

Ask: Item under review: COc1cc2ncnc(Nc3cccc(-c4cn(Cc5cc(F)ccc5C#N)nn4)c3)c2cc1OCCCN1CCOCC1 [Compound 11r] . Reported melting point?
Reply: 164 to 166 °C

Ask: Item under review: COc1cc(Cn2cc(-c3cccc(Nc4ncnc5cc(OC)c(OCCCN6CCOCC6)cc45)c3)nn2)cc(OC)c1 [Compound 11s] . Reported melting point?
Reply: 167 to 170 °C

Ask: Give its melting point value. Item: COc1cc2ncnc(Nc3cccc(-c4cn(Cc5ccc(Br)cc5F)nn4)c3)c2cc1OCCCN1CCOCC1 [Compound 11f]
Reply: 169 to 170 °C

Ask: // returns reported melting point for input COc1cc2ncnc(Nc3cccc(-c4cn(Cc5ccc(F)c(Cl)c5)nn4)c3)c2cc1OCCCN1CCOCC1 [Compound 11g]
Reply: 179 to 181 °C

Ask: Name the reported melting point value associated with the molecule COc1cc2ncnc(Nc3cccc(-c4cn(Cc5cc(C)cc(C)c5)nn4)c3)c2cc1OCCCN1CCOCC1 [Compound 11q]
Reply: 172 to 173 °C

Ask: Please look up its melting point: COc1cc2ncnc(Nc3cccc(-c4cn(Cc5ccccc5C)nn4)c3)c2cc1OCCCN1CCOCC1 [Compound 11p]
Reply: 169 to 171 °C

Ask: Quick check: melting point of COc1cc2ncnc(Nc3cccc(-c4cn(Cc5ccc(Cl)cc5)nn4)c3)c2cc1OCCCN1CCOCC1 [Compound 11o] ?
Reply: 165 to 167 °C
